System: HEK-293T
test details: Multiplex assay against HEK293T
Format: toxicity, cell-based
measurement setup: human, 48 h, 1 µM, compound concentration 1 uM, replicate 1
Hi, to clarify the labels: True covers Population Healthy Nuclei (%) from 50% upward, False covers anything below 50%.

// below: answered compounds
CC(C)N1CCC(C)(C)c2cc(C#Cc3ccc(C(=O)O)cc3)ccc21 = True
COc1cc2c(NC3CCN(C(C)C)CC3)nc(N3CCC(F)(F)CC3)nc2cc1OCCCN1CCCC1 = False
Nc1nc2c(c(N3CCNCC3)n1)CCC1=C2[C@@H]2CCCC[C@@H]2O1 = True
CCCn1c(=O)c2[nH]c(C34CC5CC(CC3C5)C4)nc2n(CCC)c1=O [ROLOFYLLINE] = False

Has CCn1c(-c2nonc2N)nc2cnc(Oc3cccc(NC(=O)c4ccc(OCCN5CCOCC5)cc4)c3)cc21 [GSK-269962A] a recorded Population Healthy Nuclei (%) greater than or equal to 50%?
False

###

Entries and their measured Population Mitochondria Different-Phenotype (%) follow.
Test system: U2OS
test details: Multiplex assay against U2OS
Assay type: toxicity, cell-based
measurement setup: human, 12 h, 10 µM, compound concentration 10 uM, replicate 1
# value in %; strip the unit string

Study these solved cases before continuing.
COc1ccc(NS(=O)(=O)c2sc3ccc(Cl)cc3c2C)cc1N1CCNCC1.Cl = 97
Cc1nc(Cc2cccc(C(F)(F)F)c2)sc1-c1ccc(C(N)=O)nc1 [TP-024n] = 27
CCC(=O)O[C@]1(C(=O)SCF)[C@H](C)C[C@H]2[C@@H]3C[C@H](F)C4=CC(=O)C=C[C@]4(C)[C@@]3(F)[C@@H](O)C[C@@]21C [FLUTICASONE PROPIONATE] = 47
COc1cc2c(NC3CCN(C(C)C)CC3)nc(N3CCC(F)(F)CC3)nc2cc1OCCCN1CCCC1 = 98
Cc1cn(-c2cc(NC(=O)c3ccc4c(c3)CN(c3cncnc3)C[C@@H]4C)cc(C(F)(F)F)c2)cn1 = 17
CN(C)C/C=C/C(=O)Nc1cc2c(Nc3ccc(F)c(Cl)c3)ncnc2cc1O[C@H]1CCOC1.O=C(O)/C=C\C(=O)O.O=C(O)/C=C\C(=O)O [AFATINIB DIMALEATE] = 37
Cl.Cl.Nc1ncnc2c1c(-c1cccc(OCc3ccccc3)c1)cn2[C@H]1C[C@@H](CN2CCC2)C1 = 100
CCOc1cc2ncc(C#N)c(Nc3ccc(OCc4cccc(F)c4)c(Cl)c3)c2cc1NC(=O)/C=C/CN(C)C [HKI-357] = 33
CC(C)(C)c1cnc(CSc2cnc(NC(=O)C3CCNCC3)s2)o1 [BMS-387032] = 26
CCCn1c(=O)c2[nH]c(C34CC5CC(CC3C5)C4)nc2n(CCC)c1=O [ROLOFYLLINE] = 80

Entry Nc1ccc(C(=O)Nc2cccc(-c3nc(N4CCOCC4)c4oc5ncccc5c4n3)c2)cn1 , system U2OS: what Population Mitochondria Different-Phenotype (%) was measured?
83

Entry CCc1cc2c(cc1CC)CC(NC[C@H](O)c1ccc(O)c3[nH]c(=O)ccc13)C2 [INDACATEROL] , system U2OS: what Population Mitochondria Different-Phenotype (%) was measured?
95

###

System: HEK-293T
test details: Multiplex assay against HEK293T
Type: toxicity, cell-based
measurement setup: human, 12 h, 10 µM, compound concentration 10 uM, replicate 1
Could you please classify the records by Population Fragmented Nuclei (%) using these ranges: low = under 10%, moderate = from 10% up to 20%, high = 20% and over

// below: answered compounds
CCCn1c(=O)c2[nH]c(C34CC5CC(CC3C5)C4)nc2n(CCC)c1=O = moderate
Cl.Cl.Nc1ncnc2c1c(-c1cccc(OCc3ccccc3)c1)cn2[C@H]1C[C@@H](CN2CCC2)C1 = moderate
c1ccc2oc(-c3csc(C4CCN(Cc5nc6ncccc6[nH]5)CC4)n3)cc2c1 = moderate

Would you mind sorting COc1cc2c(NC3CCN(C(C)C)CC3)nc(N3CCC(F)(F)CC3)nc2cc1OCCCN1CCCC1 into the appropriate category?
low

Would you mind sorting CNc1oc(-c2cccc3ccccc23)nc1C#N into the appropriate category?
high

Would you mind sorting Cc1cn(-c2cc(NC(=O)c3ccc4c(c3)CN(c3cncnc3)C[C@@H]4C)cc(C(F)(F)F)c2)cn1 into the appropriate category?
moderate

Would you mind sorting CN(C)C/C=C/C(=O)Nc1cc2c(Nc3ccc(F)c(Cl)c3)ncnc2cc1O[C@H]1CCOC1.O=C(O)/C=C\C(=O)O.O=C(O)/C=C\C(=O)O [AFATINIB DIMALEATE] into the appropriate category?
moderate

Would you mind sorting Nc1nc2c(c(N3CCNCC3)n1)CCC1=C2[C@@H]2CCCC[C@@H]2O1 into the appropriate category?
low

Would you mind sorting CC(=O)c1cc(-c2cc(C(=O)NC3CC3)ccc2C)c2ncccn12 into the appropriate category?
moderate

Would you mind sorting CCC(=O)O[C@]1(C(=O)SCF)[C@H](C)C[C@H]2[C@@H]3C[C@H](F)C4=CC(=O)C=C[C@]4(C)[C@@]3(F)[C@@H](O)C[C@@]21C [FLUTICASONE PROPIONATE] into the appropriate category?
moderate

Would you mind sorting Cc1cc2c(cc1N1C(=O)c3cccc4c(CCCO)ccc(c34)C1=O)n(C)c(=O)n2C into the appropriate category?
low

Would you mind sorting COc1cc2c(Nc3ccc(NC(=O)c4ccccc4)cc3)ncnc2cc1OCCCN1CCOCC1 into the appropriate category?
moderate

Would you mind sorting Cl.Cl.NC1(c2ccc(-c3nc4ccn5c(=O)[nH]nc5c4cc3-c3ccccc3)cc2)CCC1 into the appropriate category?
high

Would you mind sorting CCOc1cc2ncc(C#N)c(Nc3ccc(OCc4cccc(F)c4)c(Cl)c3)c2cc1NC(=O)/C=C/CN(C)C into the appropriate category?
moderate

Would you mind sorting Nc1ccc(C(=O)Nc2cccc(-c3nc(N4CCOCC4)c4oc5ncccc5c4n3)c2)cn1 into the appropriate category?
high

Would you mind sorting CCOc1cc(N2CCC(O)CC2)ccc1Nc1ncc2c(n1)N(C1CCCC1)CCC(=O)N2C into the appropriate category?
moderate

Would you mind sorting COc1ccc(NS(=O)(=O)c2sc3ccc(Cl)cc3c2C)cc1N1CCNCC1.Cl into the appropriate category?
low
